Target: antithrombin III (plasma purified human AT-III), in complex with unfractionated heparin
Property: K0.5 (µM)
Answers are plain numbers, in µM.

protein="FIXa-R318Y/R403E/E410N (protein) chain 1: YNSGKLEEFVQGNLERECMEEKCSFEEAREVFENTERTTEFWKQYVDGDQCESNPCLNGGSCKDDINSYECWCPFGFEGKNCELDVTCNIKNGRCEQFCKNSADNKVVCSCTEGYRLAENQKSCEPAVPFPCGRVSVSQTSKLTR chain 2: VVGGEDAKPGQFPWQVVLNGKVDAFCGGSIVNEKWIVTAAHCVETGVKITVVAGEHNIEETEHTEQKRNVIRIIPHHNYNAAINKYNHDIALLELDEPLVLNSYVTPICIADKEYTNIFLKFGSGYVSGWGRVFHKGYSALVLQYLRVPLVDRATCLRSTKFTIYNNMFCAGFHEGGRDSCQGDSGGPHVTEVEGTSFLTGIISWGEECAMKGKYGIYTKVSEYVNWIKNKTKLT" measurement_unit=µM value=7.07

Attention now shifts to the item below.
FIXa-D203N/F205T/R318Y (protein) chain 1: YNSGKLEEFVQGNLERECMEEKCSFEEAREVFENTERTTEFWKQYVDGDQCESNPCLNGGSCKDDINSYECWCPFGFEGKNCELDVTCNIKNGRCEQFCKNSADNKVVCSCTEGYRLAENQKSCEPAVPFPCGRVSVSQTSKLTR chain 2: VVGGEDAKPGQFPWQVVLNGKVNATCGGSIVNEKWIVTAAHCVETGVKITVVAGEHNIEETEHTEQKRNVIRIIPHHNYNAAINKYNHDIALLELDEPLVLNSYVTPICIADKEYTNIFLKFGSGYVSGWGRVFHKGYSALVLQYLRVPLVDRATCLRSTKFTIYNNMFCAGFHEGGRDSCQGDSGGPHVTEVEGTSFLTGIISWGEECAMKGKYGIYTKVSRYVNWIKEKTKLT has a reported K0.5 of 7.23
